Answer each item with its documented EC50.
tested-system: 重组hu-SIRPα-his (human, UniProt P78324 31-370, limits assumed)
Sequence (P78324 31-370 limits assumed): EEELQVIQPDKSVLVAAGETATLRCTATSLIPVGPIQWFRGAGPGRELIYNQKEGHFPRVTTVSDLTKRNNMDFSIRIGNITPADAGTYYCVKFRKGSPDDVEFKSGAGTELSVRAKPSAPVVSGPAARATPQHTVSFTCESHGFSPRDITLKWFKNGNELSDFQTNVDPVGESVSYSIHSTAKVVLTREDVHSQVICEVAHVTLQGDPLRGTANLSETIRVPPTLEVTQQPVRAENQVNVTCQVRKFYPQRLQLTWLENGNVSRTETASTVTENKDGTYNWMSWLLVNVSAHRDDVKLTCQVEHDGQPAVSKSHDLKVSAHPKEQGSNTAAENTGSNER
experimental-details: ELISA on coated hu-SIRPα-his (0.5 μg/ml), anti-mouse IgG-HRP
Report the value in ng/mL with no unit label.

Q. Answer with the recorded EC50 of 52B3 (antibody, V domains shown, also called 抗SIRPα抗体52B3) VH: EVQLQQSGAELVRSGASVKMSCKASDYTFTSYNLHWVKQTPGQGLEWIGYIYPGNGNTKYSQKFKGKATLTADTSSSTAYMQISSLTSEDSAVYFCTRNYDYYFYTMGYWGQGTTVTVSS VL: DIVLTQSPKFMSTSVGDRVNITCKASQDVCTAVAWYQQKPGQSPKLLIYSASYRYTGVPDRFTGSGSRTDFTFTISSVQAEDLAVYYCQQHYSTPLTFGAGTKLELK only.
A. 7.36

Q. Identify EC50 associated with the binder 57B10 (antibody, V domains shown, also called 抗SIRPα抗体57B10) VH: EVKLQESGAELVRSGASVKMSCKASGYTFTSYNMHWIKQTPGQGLEWIGYIYPGNGATNYNQKFKGKATLTADTSSSTAYMQISSLTSEDSAVYFCARNYDYYFYTMDYWGQGTTVTVSS VL: DIVLTQSTKFMSTSVGDRVSITCKASQDVSTAVAWYQQKPGQSPKLLIYSASYRYTGVPDRFTGSGSRTDFTFTISSVQAEDLAVFYCQQHFSAPLTFGAGTKLELK
A. 5.46

Q. Tell me measured EC50 for 40F3 (antibody, V domains shown, also called 抗SIRPα抗体40F3) VH: QVQLQQPGAELGKPGASVKLSCKASGYTFSSYYIYWLKQRPGQGLEWIGGINPSNDDTHLTEKFKSKATLIADRSSSTAYIQLSSLTSEDSAVYYCTRSYYANSWFAYWGQGTLVTVSA VL: DIVLTQSPLSLPVSLGDQASISCRSSQTIVHSNGNTYLAWYLQKPGQSPKLLIYKVSNRFSGVPDRFSGSGSGTEFTLKISRVEAEDLGVYYCFQGSHVPYTFGGGTKLEIK please.
A. 5.87
